system: dorsal horn neurones; experiment: whole-cell patch clamp recording in spinal cord slices from Chung models of neuropathic pain: membrane properties of dorsal horn neurones; type: cell-based, rat; settings: peptide 5 μM; rest = 100
The following sequences are listed with their measured Normalised Membrane Potential, mean in presence of peptide values.
measured.quantity: Normalised Membrane Potential, mean in presence of peptide

{"residue.codes": "CRIIHNNNCG [LAT7772]", "target.system": "dorsal horn neurones", "meas.value": 98.6}
{"residue.codes": "CRIVYDSNCG [LAT7774]", "target.system": "dorsal horn neurones", "meas.value": 100.9}
{"residue.codes": "CRIIHNNNC [LAT7771, C-terminal fragment of human prolactin spanning residues 219-227 of human prolactin precursor]", "target.system": "dorsal horn neurones", "meas.value": 94.8}
{"residue.codes": "CRIVYDSNC [LAT7773, C-terminal fragment of canine prolactin, residues 221-229 of canis lupus familiaris prolactin precursor]", "target.system": "dorsal horn neurones", "meas.value": 88.4}

Source of measurements: patent US20220354929A1
